Entries and their Dmax values follow.
# Measured on: EGFR L858R/T790M/C797S (Homo sapiens, UniProt P00533, C797S/L858R/T790M)
# Construct: expressed in transfected cells; host or cells: BaF3-LTC
# Sequence (P00533 25-1210 T790M/C797S/L858R): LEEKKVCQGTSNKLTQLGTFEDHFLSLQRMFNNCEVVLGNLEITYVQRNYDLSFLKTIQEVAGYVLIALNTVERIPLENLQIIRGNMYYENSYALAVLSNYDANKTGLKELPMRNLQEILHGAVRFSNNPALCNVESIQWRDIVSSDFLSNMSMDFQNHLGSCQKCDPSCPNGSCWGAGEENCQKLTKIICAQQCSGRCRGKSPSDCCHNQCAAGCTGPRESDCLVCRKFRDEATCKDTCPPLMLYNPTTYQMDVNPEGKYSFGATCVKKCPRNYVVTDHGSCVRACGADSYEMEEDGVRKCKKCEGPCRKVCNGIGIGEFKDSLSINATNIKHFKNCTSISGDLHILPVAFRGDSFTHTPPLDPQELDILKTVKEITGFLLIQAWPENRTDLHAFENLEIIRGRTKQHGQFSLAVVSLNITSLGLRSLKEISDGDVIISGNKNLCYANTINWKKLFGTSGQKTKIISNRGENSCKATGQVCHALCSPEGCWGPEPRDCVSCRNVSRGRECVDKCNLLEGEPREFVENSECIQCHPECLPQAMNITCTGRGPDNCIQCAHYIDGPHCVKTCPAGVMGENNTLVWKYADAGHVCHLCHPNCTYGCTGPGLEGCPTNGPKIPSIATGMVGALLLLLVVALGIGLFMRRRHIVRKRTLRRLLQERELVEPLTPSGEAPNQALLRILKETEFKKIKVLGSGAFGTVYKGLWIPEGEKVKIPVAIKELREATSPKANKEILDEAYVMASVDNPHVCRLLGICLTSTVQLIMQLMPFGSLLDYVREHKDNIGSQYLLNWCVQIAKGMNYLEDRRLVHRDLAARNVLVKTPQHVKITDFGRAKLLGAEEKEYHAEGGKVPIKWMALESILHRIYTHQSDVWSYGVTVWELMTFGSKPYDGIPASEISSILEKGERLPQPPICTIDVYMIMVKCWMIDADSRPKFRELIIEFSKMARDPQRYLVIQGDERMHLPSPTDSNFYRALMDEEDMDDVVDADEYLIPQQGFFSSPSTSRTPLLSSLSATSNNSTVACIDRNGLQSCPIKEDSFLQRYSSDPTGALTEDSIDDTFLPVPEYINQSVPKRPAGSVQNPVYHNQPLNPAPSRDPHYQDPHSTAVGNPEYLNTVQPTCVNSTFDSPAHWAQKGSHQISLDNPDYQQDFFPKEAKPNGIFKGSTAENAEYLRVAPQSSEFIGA
# Experiment summary: EGFR degradation HTRF assay in BaF3-LTC cells
# Assay type: cell-based
# Experimental context: BaF3-LTC (L858R/T790M/C797S), maximum percentage of inhibition (degradation); read-out: BaF3-LTC Dmax (%)
# Description: BaF3-LTC(L858R/T790M/C797S) cells and BaF3 LC(L858R/C797S) cells are treated with compounds diluted in 0.2% DMSO cell culture medium and incubate for 16 h, 37° C., 5% CO2. the final concentration of compounds in all assay is start with 10 uM, 5-fold dilution, total 8 doses were included. […] High control=Cell group with added DMSO and without compound, indicating microplate readings without EGFR degradation; […]
Quick reminder: number only, in %, skip the unit.

Look over these answered cases.
>>> recorded_result("CCOc1cc(N2CCC(N3CCN(CCc4c(F)ccc5c4n(CC)c(=O)n5C4CCC(=O)NC4=O)CC3)CC2)c(CC)cc1Nc1ncc(Br)c(Nc2ccc3nc(CC)ccc3c2P(C)(C)=O)n1 (centres unmarked)")
95.9
>>> recorded_result("CCc1cc(Nc2ncc(Br)c(Nc3ccc4nc(C)ncc4c3P(C)(C)=O)n2)c(OC)cc1N1CCC(N2CCN(C(=O)[C@H]3CN(c4cc(F)c([C@H]5CCC(=O)NC5=O)c(F)c4)CC3(C)C)CC2)CC1")
97.2
>>> recorded_result("CCc1cc(Nc2ncc(Br)c(Nc3ccc4nccnc4c3P(C)(C)=O)n2)c(OC)cc1N1CCC(N2CCN(CCc3cc(F)c([C@H]4CCC(=O)NC4=O)c(F)c3)CC2)CC1")
94.6
>>> recorded_result("CCOc1cc(N2CCC(N3CCN(CCc4cc(F)c([C@H]5CCC(=O)NC5=O)c(F)c4)CC3)CC2)c(CC)cc1Nc1ncc(Br)c(Nc2ccc3nc(CC)ncc3c2P(C)(C)=O)n1")
82.5

Please examine the following record next.
Which value of Dmax has been reported for CCc1cc(Nc2ncc(Br)c(Nc3ccc4c(=O)n(C)ncc4c3P(C)(C)=O)n2)c(OC)cc1N1CCC(N2CCN(CCc3cccc4c3C3(CC3)C(=O)N4C3CCC(=O)NC3=O)CC2)CC1 (centres unmarked) in the records? 97
